- Test system: SF-268 CNS
- assay notes: NCI-60 one-dose screen, 48 h (100 = growth as untreated, 0 = no growth, -100 = all killed)
- condition context: 10 µM unless noted
About 83,000 compounds went through this panel and 20% of them were active in at least one assay; those are over-represented in the sample as a whole.
Each record here notes measured growth.
readout label: growth (%)

• COC(=O)c1ccc(NC(=S)N2CCc3ccc([N+](=O)[O-])cc3C2)cc1O = 103
• COc1ccc(/C=N/NC(=O)c2[nH]c3ccc(Br)cc3c2-c2ccccc2)o1 = 38.6
• O=C(CCCN1C(=O)/C(=C/c2ccccc2F)SC1=S)N1CCOCC1 = 95.6
• Cn1ccnc1C(=O)/C=C/c1ccc(NC(=O)Nc2ccc(F)cc2)cc1 = 55.6
• COc1ccc(-c2nc3ccc(-c4nnc(SCC(=O)Nc5ccc(C(C)=O)cc5)o4)cc3[nH]2)cc1 = 104
• Cn1cc(-c2cc(N)n3nc(-c4cn(C)c5ccc(Br)cc45)cc3n2)c2cc(Br)ccc21 = 82.5
• COC1CCN(Cc2ccc3c(NNC(=O)c4cnccn4)nc4cc(F)ccc4n23)C1 (centres undefined) = 35.8
• C#Cc1nc(C2=C(C)C(=N\O)/C(=N/O)C2)cs1 = 86.1
• Cc1ccc(C(=O)Nc2cccc(C(F)(F)F)c2)cc1Nc1nc(-c2cnccn2)nc2c1cnn2C = 81.8
• O=C1[C@H]2Cc3c([nH]c4ccccc34)[C@@H](c3ccc(Br)cc3)N2C(=O)CN1C1CCN(Cc2ccccc2)CC1 = 37.5
• N#Cc1nc(-c2ccccc2)oc1S(=O)(=O)N1CCCCC1 = 110
• COc1ccc(/C=C/C(=O)c2ccc(NC(=O)CSc3nnc(-c4ccc5nc(-c6ccc(Cl)cc6)[nH]c5c4)o3)cc2)cc1 = 114
• CCN1C(=S)N(CC)C2C1NN=C1SC(c3ccccc3)=CC(=O)N12 (centres undefined) = 115
• Cc1ccccc1NC(=O)/C=C/c1ccc(OCCOc2ccc3c(C)cc(=O)oc3c2)cc1 = 89.2
• C#C[C@]1(O)CC[C@H]2[C@@H]3CC=C4c5sc(Nc6ccc(Cl)cn6)nc5CC[C@]4(C)[C@H]3CC[C@@]21C = 43.7
• Clc1ccc2c(NCCCN3CCOCC3)c3oc4ccccc4c3nc2c1 = 48.6
• CN1CCN(Cc2ccc(NC(=O)c3cncc(C#Cc4cnc5[nH]ncc5c4)c3)cc2C(F)(F)F)CC1 = 37.7
• CCCCCCNC(=O)Oc1ccc(/C(=C(/C)c2ccccc2)c2ccc(OCCN3CCCCCC3)cc2)cc1 = 62.2
• [Cl][Ru].c1ccc(-c2cccc(-c3ccccn3)n2)nc1.c1ccc(-c2ccnc3c2ccc2c(-c4ccccc4)ccnc23)cc1 = 28.5

meta.source: PubChem BioAssay (NCI)
